self-cleavage values, listed per item
B1: OR4K15 (parent)
chain: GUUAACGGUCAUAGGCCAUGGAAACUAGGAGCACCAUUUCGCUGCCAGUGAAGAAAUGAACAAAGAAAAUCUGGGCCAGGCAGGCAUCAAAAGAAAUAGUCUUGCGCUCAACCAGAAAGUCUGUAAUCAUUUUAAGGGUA

Variants of: B1
experiment summary: self-cleavage, relative activity (ratio to wild type); higher = more cleavage; in vitro, sequencing; the parent is a self-cleaving ribozyme

The reported value for U2C G83A in terms of self-cleavage is 0.87

Measured self-cleavage, U49G A68G : 1.76

Per the records, this variant ( U9C A66G ) has self-cleavage equal to 0.9

// sample A13U A89G , its self-cleavage was 1.51

Just so you know, measured self-cleavage for A60G A117G came out at 1.55
